target: α1A adrenoceptor (Rattus norvegicus, UniProt P43140); construct: from tissue; host or cells: rat submaxillary gland membranes; test: Radioligand binding, [3H] prazosin displacement, rat submaxillary membranes; settings: ratio of binding affinities, rat liver vs rat submaxillary
Sequence (P43140 whole entry): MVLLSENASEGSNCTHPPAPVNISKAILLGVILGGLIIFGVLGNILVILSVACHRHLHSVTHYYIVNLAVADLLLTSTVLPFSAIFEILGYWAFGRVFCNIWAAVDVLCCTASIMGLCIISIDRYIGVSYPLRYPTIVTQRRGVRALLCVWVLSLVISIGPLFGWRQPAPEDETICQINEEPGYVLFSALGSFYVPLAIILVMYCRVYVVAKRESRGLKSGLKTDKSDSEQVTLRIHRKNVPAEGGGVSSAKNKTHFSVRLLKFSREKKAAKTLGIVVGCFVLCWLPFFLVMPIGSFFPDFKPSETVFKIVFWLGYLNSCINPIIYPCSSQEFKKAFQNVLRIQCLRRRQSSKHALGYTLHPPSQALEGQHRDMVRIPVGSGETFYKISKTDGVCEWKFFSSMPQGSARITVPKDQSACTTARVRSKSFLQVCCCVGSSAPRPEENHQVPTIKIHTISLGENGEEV
Can you tell me α1B/α1A for the items I'm about to list?
A bare number is all that is needed in reply.

Indicate the recorded α1B/α1A value for this compound: COc1ccccc1N1CCN(CC(O)CNC(=O)CCCC(=O)O)CC1 (stereo not drawn) [Compound No. 12]
1

Indicate the recorded α1B/α1A value for this compound: O=C(O)CCCC(=O)NCCCN1CCN(c2ccccc2O)CC1 [Compound No. 7]
1

Indicate the recorded α1B/α1A value for this compound: O=C(O)C1CC=CCC1C(=O)NCC(O)CN1CCN(c2ccccc2O)CC1 (stereo not drawn) [Compound No. 4]
5
